Item-by-item account of protein stability index
- System: Saccharomyces cerevisiae;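 note: PSI is a weighted mean of sequencing reads over stability bins, variants kept only with over 10 reads, mCherry proximal and sfGFP distal, peptide attached via GGGS linker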
- run.description: protein stability index of tFT-peptide fusion (C-terminal peptide) (PSI (0-1 scale)); higher = more stable (slower turnover)
- stated.conditions: genetic background: wild type; temperature: 30 C

{"residue.codes": "VRWCLPPLFTPL", "protein stability index": 0.693}
{"residue.codes": "PPPPRPLPTSRP", "protein stability index": 0.689}
{"residue.codes": "CTVGWNLVFQFG", "protein stability index": 0.641}
{"residue.codes": "VGWGWGGGVVLV", "protein stability index": 0.692}
{"residue.codes": "SSPCFGKLRHFL", "protein stability index": 0.686}
{"residue.codes": "ICLLGTSSQRRD", "protein stability index": 0.705}
{"residue.codes": "KQRTRKYLNSRN", "protein stability index": 0.654}
{"residue.codes": "LPPAFRIPHTWY", "protein stability index": 0.71}
{"residue.codes": "HPDAGTAARDTD", "protein stability index": 0.648}
{"residue.codes": "CQDDGTAKRHKG", "protein stability index": 0.676}
{"residue.codes": "NRSFIITRSVLS", "protein stability index": 0.683}
{"residue.codes": "PLSPPPPGPPAS", "protein stability index": 0.604}
{"residue.codes": "ASRRMGGHNALS", "protein stability index": 0.705}
{"residue.codes": "GGGPGRCAGGGR", "protein stability index": 0.669}
{"residue.codes": "PPATPPRPPLPS", "protein stability index": 0.675}
{"residue.codes": "SRYRSTSESMKV", "protein stability index": 0.667}
{"residue.codes": "GVIQARRSASSS", "protein stability index": 0.689}
{"residue.codes": "KIKSKKEKPQVT", "protein stability index": 0.687}
{"residue.codes": "VVVLLLVVWFCL", "protein stability index": 0.379}
{"residue.codes": "VRRGGRARRRGS", "protein stability index": 0.698}
{"residue.codes": "CGVHESAIQPNL", "protein stability index": 0.605}
{"residue.codes": "QEDNAIAVGWSA", "protein stability index": 0.673}
{"residue.codes": "HIKAEKRKKKTS", "protein stability index": 0.608}
{"residue.codes": "NPMSLTTKRKTE", "protein stability index": 0.651}
{"residue.codes": "APPPHPRHPTHS", "protein stability index": 0.777}
{"residue.codes": "FLFSYIEGSPNP", "protein stability index": 0.721}
{"residue.codes": "EYKIKSIERRKK", "protein stability index": 0.73}
{"residue.codes": "CSRFGRLCYNGE", "protein stability index": 0.618}
{"residue.codes": "ETGMSHHINRIW", "protein stability index": 0.752}
{"residue.codes": "RSGGYPGLLLFN", "protein stability index": 0.623}
{"residue.codes": "QTQSNTRIERKK", "protein stability index": 0.668}
{"residue.codes": "DNAFATAYWIVV", "protein stability index": 0.647}
{"residue.codes": "PPALHRPFPPPP", "protein stability index": 0.666}
{"residue.codes": "LRVRTLGLPLVY", "protein stability index": 0.569}
{"residue.codes": "EVCLTLTTADGH", "protein stability index": 0.688}
{"residue.codes": "WCSVGVSGFVIR", "protein stability index": 0.725}
{"residue.codes": "KSRTRNNVSRVG", "protein stability index": 0.67}
{"residue.codes": "GVFWGYGLRDGV", "protein stability index": 0.731}
{"residue.codes": "SRGAFGPCEFFL", "protein stability index": 0.712}
{"residue.codes": "PTSLPPLSRPPP", "protein stability index": 0.723}
{"residue.codes": "LLSRLVVRGLVS", "protein stability index": 0.629}
{"residue.codes": "FCVQRWWGEGGH", "protein stability index": 0.618}
{"residue.codes": "PPPSRTPPLNPR", "protein stability index": 0.741}
{"residue.codes": "EGVGGGRWCGRG", "protein stability index": 0.666}
{"residue.codes": "ILGPPPRLPFPS", "protein stability index": 0.657}
{"residue.codes": "AIRENISIRLNC", "protein stability index": 0.482}
{"residue.codes": "GSCFLLSLVSFI", "protein stability index": 0.562}
{"residue.codes": "PPSQLPPPPASD", "protein stability index": 0.746}
{"residue.codes": "EVRTRSSRIHRI", "protein stability index": 0.709}
{"residue.codes": "PLPPPPRPPAPL", "protein stability index": 0.688}
{"residue.codes": "PLTPPLPPSPPP", "protein stability index": 0.711}
{"residue.codes": "TPLAPASPPAAR", "protein stability index": 0.717}
{"residue.codes": "PVSPPLPTPPPP", "protein stability index": 0.616}
{"residue.codes": "RVCYQIAISLPI", "protein stability index": 0.495}
{"residue.codes": "APAPSPPPPPPD", "protein stability index": 0.562}
{"residue.codes": "SCLPPSRPSSAL", "protein stability index": 0.629}
{"residue.codes": "NRRERQQREVYN", "protein stability index": 0.741}
{"residue.codes": "APVGLTFNSSLL", "protein stability index": 0.711}
{"residue.codes": "LLLFLHILRYVF", "protein stability index": 0.414}
{"residue.codes": "YVGAENRGVQGW", "protein stability index": 0.723}
{"residue.codes": "WTAITDRRSRPD", "protein stability index": 0.616}
{"residue.codes": "LPSRLPPQPSPA", "protein stability index": 0.687}
{"residue.codes": "SLELWPGAKGAP", "protein stability index": 0.702}
{"residue.codes": "LPPPPPPPPPSP", "protein stability index": 0.824}
{"residue.codes": "PGNFLSVSMSIC", "protein stability index": 0.649}
{"residue.codes": "FRMLSRMKEILD", "protein stability index": 0.634}
{"residue.codes": "LSCLFYSYSVSS", "protein stability index": 0.607}
{"residue.codes": "TRRKKKKNTGTK", "protein stability index": 0.71}
{"residue.codes": "PPPAPPPPPSSR", "protein stability index": 0.667}
{"residue.codes": "YHPPLTIQSLGH", "protein stability index": 0.694}
{"residue.codes": "WDYQGIIFVAGG", "protein stability index": 0.687}
{"residue.codes": "ESALPFLYSLSG", "protein stability index": 0.703}
{"residue.codes": "GGGVTRMQQRNG", "protein stability index": 0.677}
{"residue.codes": "TSKTLHKTNNIK", "protein stability index": 0.698}
{"residue.codes": "PPPSPFLPSPFR", "protein stability index": 0.707}
{"residue.codes": "GGFRVLLWCVVW", "protein stability index": 0.28}
{"residue.codes": "FPVLFSCGYFPL", "protein stability index": 0.792}
{"residue.codes": "GRMGGWCVSGEV", "protein stability index": 0.658}
{"residue.codes": "NKKKKQRINIRG", "protein stability index": 0.749}
{"residue.codes": "SFLGYAVFPYKG", "protein stability index": 0.681}
{"residue.codes": "YPSASLLPLFSC", "protein stability index": 0.171}
{"residue.codes": "LPDPPEPHLRLP", "protein stability index": 0.694}

The reported measurements were obtained from the supplement of paper PMC10724198.
